Listed here are molecules together with their documented growth inhibition.
Experiment: NCI Yeast Anticancer Drug Screen. Data for the bub3 strain (AID 167)
Conditions: S. cerevisiae bub3 mutant strain, at 5.0 µM (retest, dose inferred, filed as 0.5), hits give high values
The panel holds about 79,000 compounds, 15% with a hit somewhere; the sample as a whole holds those more often.
Number in %, nothing else.

{"columns": ["Molecule", "Reported Endpoint", "Observed"],
 "data": [
  ["Brc1ccc(N=NN2CCCC2)cc1", "growth inhibition", 30]
]}

**Query** // growth inhibition lookup, key: CCN(CC)CCCCSc1ccc([N+](=O)[O-])cc1[N+](=O)[O-]
**Result** 30

**Query** Please do the same for Cc1ccc2nc(N/N=C/c3cccc(C)n3)cc(C)c2c1 as well.
**Result** -11

**Query** Please do the same for Cc1ccc(S(=O)(=O)NNC(=O)c2sc(-c3nc(C)c(C(=O)NNS(=O)(=O)c4ccc(C)cc4)s3)nc2C)cc1 as well.
**Result** 8

**Query** Please do the same for CCN(CC)C(=O)C(C)OC(C)=O (stereo unspecified) as well.
**Result** 2

**Query** Please do the same for Clc1ccc(OCC2CO2)c(Cl)c1 (stereo unspecified) as well.
**Result** 6

**Query** Please do the same for O=C(CC(O)(C(F)(F)F)C(F)(F)Cl)CC(O)(C(F)(F)F)C(F)(F)Cl (stereo unspecified) as well.
**Result** 86

**Query** Please do the same for CC(C)C(Sc1nc(-c2ccccc2)c(-c2ccccc2)[nH]1)c1n[nH]c(=S)n1-c1ccccc1 (stereo unspecified) as well.
**Result** -1

**Query** Please do the same for Nc1nc(-c2ccccn2)cc2cc(Cl)ccc12 as well.
**Result** 92

**Query** Please do the same for COc1cc2c(cc1OC)C(C)N(C)c1c-2c(OC(C)=O)cc2cc(OC)c(OC)cc12 (stereo unspecified) as well.
**Result** -4

**Query** Please do the same for CCCCc1c2c(nc3c1CCc1cc4cc5c(nc4nc1-3)-c1nc3c(c(CCCC)c1CC5)CCCC3=O)C(=O)CCC2 as well.
**Result** 97

**Query** Please do the same for CCOc1ccc(N=Nc2c(C)nn(C(=S)SC)c2OCC)cc1 as well.
**Result** -17

**Query** Please do the same for O=C(Nc1ccc(Cl)c(Cl)c1)Nc1cc(Cl)ccc1Oc1ccc(Cl)cc1S(=O)(=O)O as well.
**Result** 43

**Query** Please do the same for COc1ccccc1NC(=O)O/N=C(/Cl)C(C)C as well.
**Result** -26

* * *

Assay: NCI Yeast Anticancer Drug Screen. Data for the mec2-1 strain (AID 157)
Details: S. cerevisiae mec2-1 strain, at 5.0 µM (retest, dose inferred, filed as 0.5), hits give high values
Method: Growth inhibition of yeast strains with defined genetic alterations is measured as a screen for potential anti-cancer activity. Selected strains with alterations in DNA damage repair or cell cycle control were exposed to compounds and growth inhibition was measured relative to vehicle treated controls. The strain used in this assay is mec2-1
The panel holds about 79,000 compounds, 15% with a hit somewhere; the sample as a whole holds those more often.
Reported Endpoint: growth inhibition (%)
Number in %, nothing else.

Would you please look over these solved cases?
{"columns": ["Molecule", "Measurement Unit", "Observed"],
 "data": [
  ["Cc1cc(-c2ccc(O)c(C)c2)ccc1O", "%", -15],
  ["Oc1cccc2ccc(/C=C/c3ccccn3)nc12", "%", 2],
  ["O=C(O)CCCCCCCCC(=O)CCl", "%", 23],
  ["CCCCCCCCCCCCOCC[N+](CCO)(CCO)Cc1ccccc1", "%", 100],
  ["Nn1c(-c2ccccc2)nn(C(=O)c2ccccc2)c1=O", "%", -2],
  ["Cc1ccc(C(O)CCN2CCOCC2)c(C)c1 (configuration not stated)", "%", 30],
  ["CC(=O)OC1C2C3C(C=CC2[C@H]1OC(C)=O)C1C3C=CC2C1C(OC(C)=O)[C@@H]2OC(C)=O (some centres not stated)", "%", -1],
  ["O=C(Nc1ccc2c(c1)Cc1cc([N+](=O)[O-])c(F)cc1-2)C(F)(F)F", "%", 1],
  ["O=C1C(Cl)=C(N2C(=O)CCCC2=O)C(=O)c2ccccc21", "%", 100],
  ["Cc1cc(=O)[nH]c2cc3oc4ccccc4c3cc12", "%", -5]
]}

**Query** // growth inhibition lookup, key: COc1ccc(C2C3CCCC(C3=O)C(c3ccc(OC)cc3)N2N=O)cc1 (configuration not stated)
**Result** 11

**Query** Please do the same for CC1OC(C)C(O)C2=C1C(=O)c1ccccc1C2=O (configuration not stated) as well.
**Result** -29

**Query** Please do the same for O=C1c2ccccc2CCC1C(O)(C(F)(F)F)C(F)(F)F (configuration not stated) as well.
**Result** 16

**Query** Please do the same for Cc1c2ccccc2c(CCl)c2ccc3ccccc3c12 as well.
**Result** 100

**Query** Please do the same for Nc1cccc2cccnc12 as well.
**Result** 8

**Query** Please do the same for O=C1C=CC(=O)N1c1ccc(-c2ccc(N3C(=O)C=CC3=O)cc2)cc1 as well.
**Result** 56

**Query** Please do the same for Fc1ccccc1CN1COc2c(cc(Cl)c3cccnc23)C1 as well.
**Result** -1

src = PubChem BioAssay (NCI)
